- Protocol description: Stability in liver microsomes, human
- Method: Mixed-gender human liver microsomes, male Sprague-Dawley rat liver microsomes, and male Beagle dog liver microsomes were purchased from XenoTech. The reaction mixture, minus NADPH, was prepared as described below. […] Aliquots of the supernatant were removed, diluted 1:1 into distilled water containing internal standard, and analyzed by LC-MS/MS against calibration standards prepared in a matched matrix. All samples were analyzed for the dosed prodrugs as well as the drug, treprostinil. […]
Property name: Trep Concentration 10 min (µM)
Numbers only here, please. The scale is µM.

{"Compound": "CCCCCC(CCC1C(O)CC2Cc3c(cccc3OCC(=O)O)CC21)OC(=O)c1ccc(C)cc1 (centres unmarked) [XLVIII]", "Property name": "Trep Concentration 10 min", "Numeric readout": 0.302}

[ask] I have this compound here, CCCCCC(CCC1C(O)CC2Cc3c(cccc3OCC(=O)O)CC21)OC(=O)c1cccc(O)c1 (centres unmarked) [LX] , and I need its recorded Trep Concentration 10 min.
[reply] 0.14

[ask] I have this compound here, CCCCCC(CCC1C(O)CC2Cc3c(cccc3OCC(=O)O)CC21)OCC(=O)O (centres unmarked) [LVII] , and I need its recorded Trep Concentration 10 min.
[reply] 0

[ask] I have this compound here, CCCCCC(CCC1C(O)CC2Cc3c(cccc3OCC(=O)O)CC21)Oc1ccccc1C(=O)O (centres unmarked) [LVI] , and I need its recorded Trep Concentration 10 min.
[reply] 0

[ask] I have this compound here, CCCCCC(CCC1C(O)CC2Cc3c(cccc3OCC(=O)O)CC21)OC(C)=O (centres unmarked) [XLIII] , and I need its recorded Trep Concentration 10 min.
[reply] 0.681

---

- Protocol description: Stability in liver microsomes, rat
Property name: Treprostinil Concentration 120 min (µM)
Numbers only here, please. The scale is µM.

{"Molecule": "CCCCCC(CCC1C(O)CC2Cc3c(cccc3OCC(=O)O)CC21)OC(=O)CC (stereo not shown) [Prodrug LV]", "Unit info": "µM", "Treprostinil Concentration 120 min": 0.553}

[ask] I have this molecule here, CCCCCC(CCC1C(O)CC2Cc3c(cccc3OCC(=O)O)CC21)OP(=O)(O)O (stereo not shown) [Prodrug VI] , and I need its recorded Treprostinil Concentration 120 min.
[reply] 0.73

[ask] I have this molecule here, CCCCCC(CCC1C(O)CC2Cc3c(cccc3OCC(=O)O)CC21)OC(C)=O (stereo not shown) [Prodrug XLIII] , and I need its recorded Treprostinil Concentration 120 min.
[reply] 0.206

[ask] I have this molecule here, CCCCCC(CCC1C(OC(=O)CC)CC2Cc3c(cccc3OCC(=O)O)CC21)OC(=O)CC (stereo not shown) [Prodrug LXX, treprostinil dipropionate] , and I need its recorded Treprostinil Concentration 120 min.
[reply] 0.699

---

Recorded Trep Concentration (μM) 120 min by entry
- Protocol description: Stability in cryopreserved hepatocytes, rat
Numbers only here, please. The scale is µM.

{"Compound": "CCCCCC(CCC1C(O)CC2Cc3c(cccc3OCC(=O)O)CC21)OCCC (stereo not drawn) [XLVI]", "Trep Concentration (μM) 120 min, µM": 0.0224}
{"Compound": "CCCCCC(CCC1C(O)CC2Cc3c(cccc3OCC(=O)O)CC21)OC(=O)c1ccc(O)cc1 (stereo not drawn) [LXVIII]", "Trep Concentration (μM) 120 min, µM": 0.00743}
{"Compound": "CCCCCC(CCC1C(O)CC2Cc3c(cccc3OCC(=O)O)CC21)OC(=O)c1cccc(O)c1 (stereo not drawn) [LX]", "Trep Concentration (μM) 120 min, µM": 0.0634}
{"Compound": "CCCCCC(CCC1C(O)CC2Cc3c(cccc3OCC(=O)O)CC21)OC(=O)CCC(=O)O (stereo not drawn) [XX]", "Trep Concentration (μM) 120 min, µM": 0.609}
{"Compound": "CCCCCC(CCC1C(O)CC2Cc3c(cccc3OCC(=O)O)CC21)OC(=O)C12CC3CC(CC(C3)C1)C2 (stereo not drawn) [LXIX]", "Trep Concentration (μM) 120 min, µM": 0.119}

[ask] I have this compound here, CCCCCC(CCC1C(O)CC2Cc3c(cccc3OCC(=O)O)CC21)OC(N)=O (stereo not drawn) [XLII] , and I need its recorded Trep Concentration (μM) 120 min.
[reply] 0.3

[ask] I have this compound here, CCCCCC(CCC1C(O)CC2Cc3c(cccc3OCC(=O)O)CC21)OCCN1CCOCC1 (stereo not drawn) [L] , and I need its recorded Trep Concentration (μM) 120 min.
[reply] 0.0034

[ask] I have this compound here, CCCCC[C@H]1CC[C@@H]2[C@H]3Cc4cccc(OCC(=O)O)c4C[C@H]3C[C@H]2OC(=O)O1 [XXIV] , and I need its recorded Trep Concentration (μM) 120 min.
[reply] 0.431

[ask] I have this compound here, CCCCCC(CCC1C(O)CC2Cc3c(cccc3OCC(=O)O)CC21)OC(=O)CC (stereo not drawn) [LV] , and I need its recorded Trep Concentration (μM) 120 min.
[reply] 0.391

[ask] I have this compound here, CCCCCC(CCC1C(O)CC2Cc3c(cccc3OCC(=O)O)CC21)OCC(=O)O (stereo not drawn) [LVII] , and I need its recorded Trep Concentration (μM) 120 min.
[reply] 0

[ask] I have this compound here, CCCCCC(CCC1C(O)CC2Cc3c(cccc3OCC(=O)O)CC21)OCc1oc(=O)oc1C (stereo not drawn) [LI] , and I need its recorded Trep Concentration (μM) 120 min.
[reply] 0.464

[ask] I have this compound here, CCCCCC(CCC1C(O)CC2Cc3c(cccc3OCC(=O)O)CC21)OP(=O)(O)O (stereo not drawn) [VI] , and I need its recorded Trep Concentration (μM) 120 min.
[reply] 0.53

[ask] I have this compound here, CCCCCC(CCC1C(O)CC2Cc3c(cccc3OCC(=O)O)CC21)OC(=O)COc1ccc(O)cc1 (stereo not drawn) [LIV] , and I need its recorded Trep Concentration (μM) 120 min.
[reply] 0.455

[ask] I have this compound here, CCCCCC(CCC1C(O)CC2Cc3c(cccc3OCC(=O)O)CC21)OC(=O)c1ccc(C(F)(F)F)cc1 (stereo not drawn) [LXII] , and I need its recorded Trep Concentration (μM) 120 min.
[reply] 0.264

[ask] I have this compound here, CCCCCC(CCC1C(O)CC2Cc3c(cccc3OCC(=O)O)CC21)OC(=O)CCN (stereo not drawn) [XXXVII] , and I need its recorded Trep Concentration (μM) 120 min.
[reply] 0.0527

[ask] I have this compound here, CCCCCC(CCC1C(O)CC2Cc3c(cccc3OCC(=O)O)CC21)OC(=O)CCC(=O)N1CCOCC1 (stereo not drawn) [XXXIII] , and I need its recorded Trep Concentration (μM) 120 min.
[reply] 0.238

[ask] I have this compound here, CCCCCC(CCC1C(O)CC2Cc3c(cccc3OCC(=O)O)CC21)OC(=O)c1ccc(C)cc1 (stereo not drawn) [XLVIII] , and I need its recorded Trep Concentration (μM) 120 min.
[reply] 0.318

[ask] I have this compound here, CCCCCC(CCC1C(O)CC2Cc3c(cccc3OCC(=O)O)CC21)Oc1ccccc1C(=O)O (stereo not drawn) [LVI] , and I need its recorded Trep Concentration (μM) 120 min.
[reply] 0

---

- Run parameters: rat
Property name: AUC

{"Compound": "CCCCCC(CCC1C(O)CC2Cc3c(cccc3OCC(=O)O)CC21)OC(=O)NCC(=O)O (stereo not shown)", "AUC": "0.00 µmol·min/L"}
{"Compound": "CCCCCC(CCC1C(O)CC2Cc3c(cccc3OCC(=O)O)CC21)OC(=O)C(C)C (stereo not shown)", "AUC": "25.20 µmol·min/L"}
{"Compound": "CCCCCC(CCC1C(O)CC2Cc3c(cccc3OCC(=O)O)CC21)OC(=O)OCC (stereo not shown)", "AUC": "54.90 µmol·min/L"}
{"Compound": "CCCCCC(CCC1C(O)CC2Cc3c(cccc3OCC(=O)O)CC21)OC(=O)C(C)N (stereo not shown)", "AUC": "3.09 µmol·min/L"}

[ask] I have this compound here, CCCCCC(CCC1C(O)CC2Cc3c(cccc3OCC(=O)O)CC21)OC(=O)NCCO (stereo not shown) , and I need its recorded AUC.
[reply] 0.00 µmol·min/L

[ask] I have this compound here, CCCCCC(CCC1C(O)CC2Cc3c(cccc3OCC(=O)O)CC21)OC(N)=O (stereo not shown) , and I need its recorded AUC.
[reply] 18.22 µmol·min/L

[ask] I have this compound here, CCCCCC(CCC1C(O)CC2Cc3c(cccc3OCC(=O)O)CC21)OC(=O)c1ccc(O)cc1 (stereo not shown) , and I need its recorded AUC.
[reply] 0.69 µmol·min/L

---

- Protocol description: Stability in human subcutaneous skin homogenate
I would appreciate it if you labelled entries 1 (yes) when Trep Concentration 60 min is 0.03 µM or higher, otherwise 0 (no).

Here are 3 molecules together with their reported answers.
{"Molecule": "CCCCCC(O)CCC1C(OC)CC2Cc3c(cccc3OCC(=O)O)CC21 (centres unmarked)", "Assigned category": "0 (no)"}
{"Molecule": "CCCCCC(CCC1C(O)CC2Cc3c(cccc3OCC(=O)O)CC21)OC(=O)COc1ccc(O)cc1 (centres unmarked)", "Assigned category": "1 (yes)"}
{"Molecule": "CCCCCC(CCC1C(O)CC2Cc3c(cccc3OCC(=O)O)CC21)OP(=O)(O)O (centres unmarked)", "Assigned category": "1 (yes)"}

Turning now to a further record.
[ask] // inclusive: Trep Concentration 60 min at least 0.03 µM? input: CCCCCC(CCC1C(O)CC2Cc3c(cccc3OCC(=O)O)CC21)OC(=O)CO (centres unmarked)
[reply] 1 (yes)
